// kon lookup, one value per entry
biological target: T1, wild type human CD47 (Acro Biosystems, cat. no. CD7-H5227) (human, UniProt Q08722 19-139); assay: SPR, IgG captured, CD47 in flow; exp 2;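 note: rates derived from association and dissociation curves, KD estimated from them, C33G mutein used to avoid CD47 IgV homodimers for true monovalent affinity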
T1 construct: Bought protein used as SPR analyte; also called Human CD47 wt; wild-type CD47
T1 sequence (Q08722 19-139 limits assumed): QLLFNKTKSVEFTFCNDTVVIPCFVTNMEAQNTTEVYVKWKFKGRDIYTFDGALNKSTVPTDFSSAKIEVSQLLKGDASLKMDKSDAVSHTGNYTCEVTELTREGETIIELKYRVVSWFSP
Just the number please, in M⁻¹ s⁻¹, no unit attached.

Check out these entries, answers already filled in.
108VH10 / 108VL10.Ma (antibody, V domains shown, 4D5-framework series; constant regions not restated for this series; also called VH10 VL10.Ma) VH: EVQLVESGGGLVQPGGSLRLSCAASGYSFTHHWIHWVRQAPGKGLEWVAMIDPSDSETRLSQKFKDRFTISADTSKNTAYLQMNSLRAEDTAVYYCSRLGRYYFDYWGQGTLVTVSS VL: DIQMTQSPSSLSASVGDRVTITCRASQSISSYLNWYQQKPGKAPKLLIYGASNRYTGVPSRFSGSRSGTDFTLTISSLQPEDFATYYCGESYGHLYTFGQGTKVEIK    1e+06
108VH10.Me / 108VL10.M1 (antibody, V domains shown, 4D5-framework series; constant regions not restated for this series; Pro53 replaced with Gln; also called VH10.Me VL10.M1) VH: EVQLVESGGGLVQPGGSLRLSCAASGYSFTHHWIHWVRQAPGKGLEWVAMIDQSDSETRLSQKFKDRFTISADTSKNTAYLQMNSLRAEDTAVYYCSRLGRYYFDYWGQGTLVTVSS VL: DIQMTQSPSSLSASVGDRVTITCRASENVGTYISWYQQKPGKAPKLLIYGASNRYTGVPSRFSGSRSGTDFTLTISSLQPEDFATYYCGESYGHLYTFGQGTKVEIK    52000

Exercise: Quick one: kon for 108VH10.Mf / 108VL10.M1 (antibody, V domains shown, 4D5-framework series; constant regions not restated for this series; also called VH10.Mf VL10.M1) VH: EVQLVESGGGLVQPGGSLRLSCAASGYSFTHHWIHWVRQAPGKGLEWVAMIDPSDSETRLVDSVKGRFTISADTSKNTAYLQMNSLRAEDTAVYYCSRLGRYYFDYWGQGTLVTVSS VL: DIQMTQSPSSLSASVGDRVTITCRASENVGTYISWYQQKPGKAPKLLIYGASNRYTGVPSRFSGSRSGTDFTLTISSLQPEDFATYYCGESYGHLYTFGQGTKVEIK ?
Key: 230000
